Just for reference, PubChem BioAssay is where these values come from.

- procedure_summary: small-molecule binders of probe aNOTCH2, primary screen, biochemical, small-molecule microarray, 635/667 nm fluorescence (AID 1121);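 note: score merges feature fluorescence read at 667 nm with its signal to noise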
- condition_set: higher = more signal
// values below are reported composite z-score
Reply briefly: the number, and no unit.

Please review the entries below; each comes with its answer.
compound	composite z-score
CCCCC(=O)N(CCN1CCOCC1)[C@@H]1CC(C(=O)NCCO)=C[C@H](Oc2c(I)cc(CO)cc2OC)[C@H]1O	-0.185
CCOC(=O)C=Cc1ccccc1O	0.0295
CC1CC/C=C\[C@H]2OC34C=CCN(C(C)(C)C)C(=O)[C@H]3N(C(CO)C(C)C)C(=O)[C@@H]4C2C(=O)O1 (stereo partly drawn)	-0.0974
Cc1ccc(N2C(=O)c3ccccc3[C@](C)(C(=O)NCc3ccccc3)[C@@H]2c2ccc(CO)cc2)nc1	0.0611
CN(C)C(=O)[C@@]1(Cc2ccccc2N=[N+]=[N-])N=C(c2ccc(OCCCO)cc2)O[C@H]1c1ccccc1	0.369
CCCCCCCCCCC(O)C1C=CC2C(=O)N(C)C(=O)C2N1Nc1cc(OC)c(OC)c(OC)c1 (stereo not drawn)	-0.0521
CCOC(=O)C1=C[C@@H](C(C)(C)C)N(S(=O)(=O)c2ccc(C)cc2)[C@H]1c1ccccc1	-0.0836

Here is another compound to look at.
Entry O=C1C2C=CC(C(O)c3cc(C(F)(F)F)cc(C(F)(F)F)c3)N(Nc3ccccc3F)C2C(=O)N1c1ccccc1 (stereo not drawn) , composite z-score reported as -0.0005

* * *

- procedure_summary: small-molecule microarray binders of probe aCHRDL2, primary screen, biochemical, biotinylated probe, 635/667 nm fluorescence (AID 1100)
- condition_set: higher = more signal
Please mark Criterion met if the recorded composite z-score is equal to or greater than 0.7, and Criterion not met if it falls below.

Observe how each entry below is paired with its result.
molecule	assigned_category
COCCCNC(=O)[C@@]1(c2ccc([N+](=O)[O-])cc2)CC(=O)N(C(C)C)[C@@H]1c1ccc(CO)cc1	Criterion met
CCCCCCCCCCC(O)C1C=CC2C(=O)N(c3ccccc3)C(=O)C2N1Nc1ccccc1F (stereo not drawn)	Criterion met
COc1ccc(C#Cc2ccc3c(c2)[C@]2(C(=O)N3)[C@H](C(=O)Nc3nc4ccccc4s3)[C@H]3C(=O)O[C@H](c4ccccc4)[C@H](c4ccccc4)N3[C@@H]2c2ccccc2OCCO)cc1	Criterion not met

Challenge: Has CN1C(=O)C2C=CC(C(O)c3ccc(I)cc3)N(Nc3ccccc3)C2C1=O (stereo not drawn) a recorded composite z-score greater than or equal to 0.7?
Response given: Criterion met

* * *

- procedure_summary: modulators of S6 phosphorylation in cells, primary screen, cell-based, A549, cytoblot, luminescence, serum-stimulated (AID 1158);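 note: serum-stimulated A549 lung adenocarcinoma cells; signal is phosphorylated S6 detected by cytoblot immunostaining with HRP secondary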
- condition_set: A549 phospho-S6 cytoblot, 5 h, higher = more signal
measured_metric: z-score
Reply briefly: the number, and no unit.

Entry O=C1[C@@H]2[C@@H](CC(COc3ccccc3)=C3[C@@H](CCc4ccccc4)OB(O)C[C@@H]32)C(=O)N1Cc1ccccc1 , z-score reported as 0.17

* * *

- procedure_summary: anti-His antibody binders, primary screen, artefact control for SMM control protein annotation, biochemical, small-molecule microarray, 635 nm fluorescence (AID 1128);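 note: score merges feature fluorescence with signal-to-noise for each printed compound spot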
- condition_set: anti-His Alexa647 antibody binding, higher = more signal
measured_metric: composite z-score

Please review the entries below; each comes with its answer.
molecule	value_observed
CC(C)c1ccc(NN2C(C(O)Cc3ccccc3)C=CC3C(=O)N(c4ccccc4)C(=O)C32)cc1 (centres undefined)	0.829
Cc1ccc(N2C(=O)c3ccccc3[C@](C)(C(=O)NCc3ccccc3)[C@@H]2c2ccc(CO)cc2)nc1	2.31
COCCOC(=O)N1C(=O)[C@@]2(c3cc(C#CC4(O)CCCCCC4)ccc31)[C@H](c1ccc(OCCO)cc1)N1[C@H](c3ccccc3)[C@H](c3ccccc3)OC(=O)[C@H]1[C@@H]2C(=O)Nc1nc2ccccc2s1	1.08
CCOC(=O)C=Cc1cc(F)ccc1O	0.354
COC(=O)C(CC#Cc1ccc2c(c1)[C@]1(C(=O)N2)[C@H](C(=O)Nc2nc3ccccc3s2)[C@H]2C(=O)O[C@H](c3ccccc3)[C@H](c3ccccc3)N2[C@@H]1c1ccc(OCCO)cc1)C(=O)OC	1.94

Entry NC(=O)NCC#Cc1ccc2c(c1)[C@]1(C(=O)N2)[C@H](C(=O)N2CCN(c3ncccn3)CC2)[C@H]2C(=O)O[C@H](c3ccccc3)[C@H](c3ccccc3)N2[C@@H]1c1ccc(OCCO)cc1 , composite z-score reported as 0.0543

Entry C=CCC(OC(C)=O)[C@@H]1[C@@H](N(Cc2cccc3ccccc23)C(=O)Cc2ccc(F)cc2)c2cc(OCCCO)ccc2N1C(=O)c1ccc(-c2ccccc2)cc1 (some centres undefined) , composite z-score reported as -0.517

Entry CO[C@H]1O[C@H](CO)[C@@H](OC(=O)Nc2ccc(C#N)cc2)[C@@H]2OC(=O)[C@H](Cc3cccc(Br)c3)C/C=C/C[C@@H](Cc3cccc(Br)c3)C(=O)O[C@@H]12 , composite z-score reported as 1.26

Entry COC(=O)[C@@]1(Cc2ccc(F)cc2)[C@H]2c3cc(C(=O)N4CCCC4)n(CC4CC4)c3C[C@H]2CN1C(=O)c1ccccc1 , composite z-score reported as 2.46

Entry CN(C)CCCNC(=O)[C@@H]1c2ccccc2C(=O)N(C2CCCCC2)[C@H]1c1ccc(CO)cc1 , composite z-score reported as 2.58

Entry O=C(NCCN1CCOCC1)[C@@H]1c2ccccc2C(=O)N(Cc2ccccc2)[C@H]1c1ccc(CO)cc1 , composite z-score reported as -0.87

Entry CN1C(=O)[C@@]2(Cc3ccccc3)N=C(c3ccc(OCCCO)cc3)O[C@H]2c2ccccc21 , composite z-score reported as 1.32

Entry C=C(CCCC)/C(=C/C[C@H](OC(C)=O)c1ccc(OCCO)cc1)c1cc(C(=O)OC)ccc1OC , composite z-score reported as 0.124

Entry O=C1OCC=C[C@H]2OC34C=CCN(c5ccc6ccccc6c5)C(=O)[C@H]3N(CCCCCO)C(=O)[C@@H]4[C@@H]12 (some centres undefined) , composite z-score reported as 0.0997
